# Assay target: Non-receptor tyrosine-protein kinase TYK2 (Homo sapiens)
# Sequence (P29597 whole entry, the tested form may be a part): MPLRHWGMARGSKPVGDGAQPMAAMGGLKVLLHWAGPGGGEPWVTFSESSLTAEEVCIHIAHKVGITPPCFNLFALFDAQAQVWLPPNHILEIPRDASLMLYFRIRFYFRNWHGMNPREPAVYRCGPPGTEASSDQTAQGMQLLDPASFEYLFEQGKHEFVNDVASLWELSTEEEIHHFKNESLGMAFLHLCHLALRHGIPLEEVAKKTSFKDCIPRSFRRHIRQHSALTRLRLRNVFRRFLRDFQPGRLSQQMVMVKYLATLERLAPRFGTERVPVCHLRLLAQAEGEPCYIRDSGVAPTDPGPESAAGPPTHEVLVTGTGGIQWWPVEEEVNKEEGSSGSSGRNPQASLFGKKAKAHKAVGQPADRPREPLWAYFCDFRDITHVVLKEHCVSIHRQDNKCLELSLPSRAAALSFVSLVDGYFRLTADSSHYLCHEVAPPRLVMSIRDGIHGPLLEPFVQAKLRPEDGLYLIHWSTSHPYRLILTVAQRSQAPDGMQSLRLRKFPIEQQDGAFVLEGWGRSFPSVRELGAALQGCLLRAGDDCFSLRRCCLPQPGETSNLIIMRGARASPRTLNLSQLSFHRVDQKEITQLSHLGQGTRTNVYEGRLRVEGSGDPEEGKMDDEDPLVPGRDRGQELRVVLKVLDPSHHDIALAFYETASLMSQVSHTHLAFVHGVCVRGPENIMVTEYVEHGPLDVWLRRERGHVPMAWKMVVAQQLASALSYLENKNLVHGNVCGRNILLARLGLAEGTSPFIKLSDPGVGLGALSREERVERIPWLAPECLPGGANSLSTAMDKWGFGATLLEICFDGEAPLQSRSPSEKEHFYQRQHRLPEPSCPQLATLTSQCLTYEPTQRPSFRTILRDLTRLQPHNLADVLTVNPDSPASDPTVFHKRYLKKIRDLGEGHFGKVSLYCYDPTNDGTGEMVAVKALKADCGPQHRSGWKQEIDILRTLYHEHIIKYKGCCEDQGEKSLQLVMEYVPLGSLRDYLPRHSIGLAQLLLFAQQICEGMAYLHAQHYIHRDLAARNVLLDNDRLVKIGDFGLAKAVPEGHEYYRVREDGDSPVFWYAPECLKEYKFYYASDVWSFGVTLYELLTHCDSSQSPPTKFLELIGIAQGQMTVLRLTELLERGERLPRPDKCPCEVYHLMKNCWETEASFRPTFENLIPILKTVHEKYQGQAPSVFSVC
# Method summary: Inhibition of TYK2 (unknown origin) (575 to 869 residues) by HTRF assay
pIC50: −log10 of the molar value.
Examples of molecules with documented pIC50 follow.

>  <Smiles record>
CNC(=O)c1cnc(Nc2ccc(F)cn2)cc1Nc1cccc(C(=O)NC)c1OC

>  <pIC50>
9.22

$$$$
>  <Smiles record>
CNC(=O)c1cccc(Nc2cc(Nc3ccc(F)cn3)ncc2C(=O)NC)c1

>  <pIC50>
7.36

$$$$

* * *

# Method summary: Inhibition of tyrosine kinase (unknown origin)
# Design: species or system Homo sapiens
Quantity name: log10(IC50) (log10 of the value in nM)

>  <Smiles record>
COc1ccc2ncc(C#N)c(Nc3ccc(Cl)cc3Cl)c2c1

>  <log10(IC50)>
2.51

$$$$
>  <Smiles record>
CCOc1cc(Nc2c(C#N)cnc3cc(OC)c(OC)cc23)c(Cl)cc1Cl

>  <log10(IC50)>
3.08

$$$$
>  <Smiles record>
COc1cc2ncc(C#N)c(Nc3ccc(Cl)cc3Cl)c2cc1OC

>  <log10(IC50)>
1.48

$$$$
>  <Smiles record>
COc1cc2ncc(C#N)c(Nc3cc(O)c(Cl)cc3Cl)c2cc1OC

>  <log10(IC50)>
2.28

$$$$
>  <Smiles record>
COc1ccc2c(Nc3ccc(Cl)cc3Cl)c(C#N)cnc2c1

>  <log10(IC50)>
2.30

$$$$
>  <Smiles record>
COc1cc(Nc2c(C#N)cnc3cc(OCCCN4CCOCC4)c(OC)cc23)c(Cl)cc1Cl

>  <log10(IC50)>
-0.10

$$$$
>  <Smiles record>
COc1cc(Nc2c(C#N)cnc3cc(OC)c(OC)cc23)c(Cl)cc1Cl

>  <log10(IC50)>
0.63

$$$$
>  <Smiles record>
COc1cc(Nc2c(C#N)cnc3cc(OCCCN4CCN(C)CC4)c(OC)cc23)c(Cl)cc1Cl

>  <log10(IC50)>
0.08

$$$$

Source: ChEMBL document CHEMBL5576061
